Data origin: patent US11059784B2

Kindly supply the reported EC50 values for the records listed here.
system: S1P1 (Homo sapiens (Human))
Sequence (P21453 whole entry): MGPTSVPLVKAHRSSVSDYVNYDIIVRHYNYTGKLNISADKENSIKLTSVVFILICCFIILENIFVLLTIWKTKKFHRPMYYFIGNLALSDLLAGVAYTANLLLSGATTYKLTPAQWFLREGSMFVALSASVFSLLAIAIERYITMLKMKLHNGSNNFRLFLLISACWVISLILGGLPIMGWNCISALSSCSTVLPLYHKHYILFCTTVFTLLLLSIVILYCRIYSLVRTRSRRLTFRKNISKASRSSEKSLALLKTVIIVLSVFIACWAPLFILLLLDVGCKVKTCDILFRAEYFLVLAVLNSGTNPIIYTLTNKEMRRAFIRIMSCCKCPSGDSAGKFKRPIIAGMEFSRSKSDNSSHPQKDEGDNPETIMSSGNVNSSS
assay info: Receptor [35S] GTPγS Binding Assay, S1P1
cond: membranes from S1P1/CHO cells
State just the number; it will be interpreted in nM.

May I ask what EC50 has been recorded for `C/C(=N\OCc1ccc(C2CCCCC2)c(C(F)(F)F)c1)c1ccc(C(=O)N2CCC(N)(COP(=O)(O)O)CC2)cc1` ?
60.8

One more compound: CC/C(=N\OCCCc1ccccc1)c1ccc(C(=O)N2CCC(N)(COP(=O)(O)O)C2)cc1 (single isomer, unassigned) [Example 63]
342

One more compound: C/C(=N\OCCCc1ccccc1)c1ccc(C(=O)N2CCC(N)(COP(=O)(O)O)C2)cc1 (single isomer, unassigned) [Example 62]
504

One more compound: `COc1cccc(CO/N=C(\C)c2ccc([C@@H]3CC[C@](N)(COP(=O)(O)O)C3)cc2)c1`
630

One more compound: CC(=NOCCc1ccccc1)c1ccc(C(=O)N2CCC(N)(COP(=O)(O)O)C2)cc1 (stereo not shown)
1560

One more compound: `C/C(=N\OCCCc1ccccc1)c1ccc([C@@H]2CC[C@](N)(COP(=O)(O)O)C2)cc1`
25.3

One more compound: `C/C(=N\OCCc1ccccc1)c1ccc([C@@H]2CC[C@](N)(COP(=O)(O)O)C2)cc1`
91.5

----------
system: S1P3 (Homo sapiens (Human), UniProt Q99500)
Sequence (Q99500 whole entry): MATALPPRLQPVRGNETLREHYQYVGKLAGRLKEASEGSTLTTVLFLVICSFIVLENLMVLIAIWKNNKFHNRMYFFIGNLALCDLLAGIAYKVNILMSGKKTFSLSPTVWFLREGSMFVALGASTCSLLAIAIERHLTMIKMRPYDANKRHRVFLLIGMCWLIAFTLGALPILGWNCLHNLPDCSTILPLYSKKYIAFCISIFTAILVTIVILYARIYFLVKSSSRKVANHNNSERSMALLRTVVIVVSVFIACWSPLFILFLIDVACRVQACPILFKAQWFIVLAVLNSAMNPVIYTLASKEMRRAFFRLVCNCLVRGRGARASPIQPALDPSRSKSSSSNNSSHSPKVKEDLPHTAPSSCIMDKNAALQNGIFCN
assay info: Receptor [35S] GTPγS Binding Assay, S1P3
cond: membranes from EDG3-Gal5-bla HEK293T cells
Procedure: Receptor [^35S] GTPγS Binding Assays: Compounds were loaded in a 384 Falcon v-bottom plate (0.5 μl/well in an 11 point, 3-fold dilution). Membranes prepared from S1P1/CHO cells or EDG3-Gal5-bla HEK293T cells (EDG3 equivalent S1P3) were added to the compound plate ([…], final protein 3 μg/well) with MULTIDROP®. […]
endpoint name: EC50

May I ask what EC50 has been recorded for `CC(=NOCC1CC1)c1ccc([C@@H]2CC[C@](N)(COP(=O)(O)O)C2)cc1` ?
> 30 µM

One more compound: CC/C(=N\OCCCc1ccccc1)c1ccc(C(=O)N2CCC(N)(COP(=O)(O)O)C2)cc1 (single isomer, unassigned) [Example 64]
> 6.25 µM

One more compound: C/C(=N\OCc1ccc(C2CCCCC2)c(C(F)(F)F)c1)c1ccc(C(=O)N2CCC(N)(COP(=O)(O)O)C2)cc1 (single isomer, unassigned) [Example 59]
> 3.13 µM

One more compound: `COc1cccc(CO/N=C(\C)c2ccc([C@@H]3CC[C@](N)(COP(=O)(O)O)C3)cc2)c1`
> 60 µM

One more compound: CC/C(=N\OCCCc1ccccc1)c1ccc(C(=O)N2CCC(N)(COP(=O)(O)O)C2)cc1 (single isomer, unassigned) [Example 63]
> 6.25 µM

One more compound: C/C(=N\OCCCc1ccccc1)c1ccc(C(=O)N2CCC(N)(COP(=O)(O)O)C2)cc1 (single isomer, unassigned) [Example 62]
> 6.25 µM

One more compound: `CC(=NOCC1CCCCC1)c1ccc([C@@H]2CC[C@](N)(COP(=O)(O)O)C2)cc1`
> 60 µM

One more compound: `CC(=NOCc1ccc([N+](=O)[O-])cc1)c1ccc([C@@H]2CC[C@](N)(COP(=O)(O)O)C2)cc1`
> 30 µM

One more compound: `CC(=NOCc1ccc(F)cc1)c1ccc([C@@H]2CC[C@](N)(COP(=O)(O)O)C2)cc1`
> 30 µM

One more compound: `C/C(=N\OCCc1ccccc1)c1ccc([C@@H]2CC[C@](N)(COP(=O)(O)O)C2)cc1`
> 30 µM

One more compound: NC1(COP(=O)(O)O)CCN(C(=O)c2ccc(/C(=N/OCCCc3ccccc3)C(F)(F)F)cc2)C1 (stereo not shown)
> 6.25 µM

One more compound: C/C(=N\OCCc1ccccc1)c1ccc(C2CC[C@](N)(COP(=O)(O)O)C2)cc1 (stereo in doubt)
> 30 µM

One more compound: `C/C(=N\OCCCc1ccccc1)c1ccc(C(=O)N2CCC(N)(COP(=O)(O)O)CC2)cc1`
> 60 µM

One more compound: C/C(=N\OCCCc1ccccc1)c1ccc(C(=O)N2CCCC(N)(COP(=O)(O)O)C2)cc1 (single isomer, unassigned)
9.37 µM

One more compound: `C/C(=N\OCCCc1ccccc1)c1ccc([C@@H]2CC[C@](N)(COP(=O)(O)O)C2)cc1`
0.773 µM

One more compound: CC(=NOCCc1ccccc1)c1ccc(C(=O)N2CCC(N)(COP(=O)(O)O)C2)cc1 (stereo not shown)
> 60 µM

One more compound: C/C(=N\OCc1ccc(C2CCCCC2)c(C(F)(F)F)c1)c1ccc(C(=O)N2CCC(N)(COP(=O)(O)O)C2)cc1 (single isomer, unassigned) [Example 60]
> 6.25 µM

One more compound: `C/C(=N\OCCc1ccccc1)c1ccc(C(=O)N2CCC(N)(COP(=O)(O)O)CC2)cc1`
> 60 µM

One more compound: `C/C(=N\OCc1ccc(C2CCCCC2)c(C(F)(F)F)c1)c1ccc([C@@H]2CC[C@](N)(COP(=O)(O)O)C2)cc1`
> 60 µM

One more compound: C/C(=N\OCCCc1ccccc1)c1ccc(C(=O)N2CCC(N)(COP(=O)(O)O)C2)cc1 (single isomer, unassigned) [Example 61]
> 6.25 µM

One more compound: `CC(=NOCCOc1ccccc1)c1ccc([C@@H]2CC[C@](N)(COP(=O)(O)O)C2)cc1`
> 60 µM

One more compound: `CC(=NOCCCc1ccccc1)c1ccc([C@H]2CC[C@](N)(COP(=O)(O)O)C2)cc1`
> 30 µM

One more compound: `C/C(=N\OCc1ccc(C2CCCCC2)c(C(F)(F)F)c1)c1ccc(S(=O)(=O)N2CCC(N)(COP(=O)(O)O)CC2)cc1`
> 18 µM

One more compound: C/C(=N\OCc1ccc(C2CCCCC2)c(C(F)(F)F)c1)c1ccc(C(=O)N2CCCC(N)(COP(=O)(O)O)C2)cc1 (single isomer, unassigned) [Example 67]
> 18 µM

One more compound: `CC(=NOCc1ccc(C(F)(F)F)cc1)c1ccc([C@@H]2CC[C@](N)(COP(=O)(O)O)C2)cc1`
> 60 µM

One more compound: `C/C(=N\OCCCc1ccccc1)c1ccc(S(=O)(=O)N2CCC(N)(COP(=O)(O)O)CC2)cc1`
> 18 µM

One more compound: `C/C(=N\OCc1ccc(C2CCCCC2)c(C(F)(F)F)c1)c1ccc(C(=O)N2CCC(N)(COP(=O)(O)O)CC2)cc1`
> 3.12 µM

One more compound: C/C(=N\OCc1ccc(C2CCCCC2)c(C(F)(F)F)c1)c1ccc(C(=O)N2CCCC(N)(COP(=O)(O)O)C2)cc1 (single isomer, unassigned) [Example 66]
9.37 µM
